- protocol summary: STM_H9_CystineISnorm_perc: Stemina devTOX quickPredict H9 human embryonic stem cell (hESC)-based Assay for Cystine (CYSS) Metabolite Biomarker, Normalized (AID 2283713)
Activity calls are given as the source filed them. How the source made its calls: active means hit-call score of the fitted dose curve at least 0.9, where 1 is the maximum; inactive means score below 0.9.
Classes used: 1 for active, 0 for inactive

> print(dat)
                                    compound  assigned.category
 1  CCCC1COC(Cn2cncn2)(c2ccc(Cl)cc2Cl)O1 (stereo unspecified)                  1
 2         CCCCNC(=O)n1c(NC(=O)OC)nc2ccccc21                  1
 3  CC1COC(Cn2cncn2)(c2ccc(Oc3ccc(Cl)cc3)cc2Cl)O1 (stereo unspecified)                  1
 4  N#Cc1nn(-c2c(Cl)cc(C(F)(F)F)cc2Cl)c(N)c1S(=O)C(F)(F)F (stereo unspecified)                  1
 5                      CCNc1nc(Cl)nc(NCC)n1                  0
 6              CCCCOC(=O)c1ccccc1C(=O)OCCCC                  1
 7  C=CCC1=C(C)[C@@H](OC(=O)[C@@H]2[C@@H](C=C(C)C)C2(C)C)CC1=O                  0
 8  CC(C)(C)c1ccc(CSc2cnn(C(C)(C)C)c(=O)c2Cl)cc1                  1
 9              CON(C)C(=O)Nc1ccc(Cl)c(Cl)c1                  1
10  C#CCOS(=O)OC1CCCCC1Oc1ccc(C(C)(C)C)cc1 (stereo unspecified)                  1
11  COC(=O)N(OC)c1ccccc1COc1ccn(-c2ccc(Cl)cc2)n1                  1

Where do these numbers come from? They come from PubChem BioAssay (EPA / NIEHS).
